- ASSAY_PROTOCOL: Plasma pharmacokinetics after single oral dose in ORA-Plus or SyrSpend SF (Example 6), LC-MS/MS
- Assay type: in vivo, Sprague Dawley rats
- CONDITIONS: female, Sprague Dawley, rat, plasma, po, 24 mg/kg, G12: 2HCl, 24 mg/kg single oral dose, SyrSpend, rat plasma; n = 1
RESULT_TYPE: half-life (h)
Please state the figure in h; there is no need to write the unit.

Exercise: Give the measured half-life of CC(C)NCCCn1c(Sc2cc3c(cc2I)OCO3)nc2c(N)ncnc21 [Compound 1 2HCl] .
Solution: 2.91

###

- ASSAY_PROTOCOL: Plasma pharmacokinetics after single oral dose in ORA-Plus or SyrSpend SF (Example 6), LC-MS/MS
- Type: in vivo, Sprague Dawley rats
- CONDITIONS: female, Sprague Dawley, rat, plasma, po, 48 mg/kg, G13: 2HCl, 48 mg/kg single oral dose, SyrSpend
RESULT_TYPE: AUC(0-t) (ng·h/mL)
Please state the figure in ng·h/mL; there is no need to write the unit.

Exercise: Give the measured AUC(0-t) of CC(C)NCCCn1c(Sc2cc3c(cc2I)OCO3)nc2c(N)ncnc21 [Compound 1 2HCl] .
Solution: 2660

###

- ASSAY_PROTOCOL: Plasma pharmacokinetics after single oral dose in ORA-Plus or SyrSpend SF (Example 6), LC-MS/MS
- Assay type: in vivo, Sprague Dawley rats
- CONDITIONS: female, Sprague Dawley, rat, plasma, po, 48 mg/kg, G13: 2HCl, 48 mg/kg single oral dose, SyrSpend; n = 2
RESULT_TYPE: AUC(0-inf)
# output: number + unit

Exercise: Give the measured AUC(0-inf) of CC(C)NCCCn1c(Sc2cc3c(cc2I)OCO3)nc2c(N)ncnc21 [Compound 1 2HCl] .
Solution: 2170 ng·h/mL

###

- ASSAY_PROTOCOL: Plasma pharmacokinetics after single PO or IV administration (Example 5), LC-MS/MS
- CONDITIONS: female, Sprague-Dawley, rat, plasma, iv, 12 mg/kg, Tmax (hr) Mean ± StdDev, Group 18: 12 mg/kg IV, 0.9% Saline; dosed as 2HCl
RESULT_TYPE: Tmax (min)
Please state the figure in min; there is no need to write the unit.

Exercise: Give the measured Tmax of CC(C)NCCCn1c(Sc2cc3c(cc2I)OCO3)nc2c(N)ncnc21 .
Solution: 15

###

- ASSAY_PROTOCOL: Plasma pharmacokinetics after single oral dose in ORA-Plus or SyrSpend SF (Example 6), LC-MS/MS
- Type: in vivo, Sprague Dawley rats
- CONDITIONS: female, Sprague Dawley, rat, plasma, po, 24 mg/kg, G3: 2HCl, 24 mg/kg single oral dose, ORA-plus, rat plasma
RESULT_TYPE: Cmax (ng/mL)
Please state the figure in ng/mL; there is no need to write the unit.

Exercise: Give the measured Cmax of CC(C)(C)CNCCn1c(Sc2cc3c(cc2I)OCO3)nc2c(N)ncnc21 [Compound 2 2HCl] .
Solution: 407

###

- ASSAY_PROTOCOL: Plasma pharmacokinetics after single PO or IV administration (Example 5), LC-MS/MS
- CONDITIONS: female, Sprague Dawley, rat, plasma, po, 60 mg/kg, AUC0-last (hr*ng/mL) Mean ± StdDev, Group 8: 60 mg/kg PO, 60 mM Citric acid buffer + 30% Captisol; free base
RESULT_TYPE: AUC(0-t)
# output: number + unit

Exercise: Give the measured AUC(0-t) of CC(C)(C)CNCCn1c(Sc2cc3c(cc2I)OCO3)nc2c(N)ncnc21 [Compound 2] .
Solution: 4.75 µg·h/mL

###

- ASSAY_PROTOCOL: Solubility / compatibility testing in drinking solution vehicles and ingredients (Example 7)
- Format: physicochemical
- CONDITIONS: 50% Flavor Sweet SF in water, aqueous with cosolvent or surfactant or cyclodextrin; API in 50% Flavor Sweet SF/H2O; read-out: Solubility testing result: Precipitate at
RESULT_TYPE: solubility

Exercise: Give the measured solubility of CC(C)NCCCn1c(Sc2cc3c(cc2I)OCO3)nc2c(N)ncnc21 [Compound 1 2HCl] .
Solution: < 5 mg/mL

###

- ASSAY_PROTOCOL: Plasma pharmacokinetics after single PO or IV administration (Example 5), LC-MS/MS
- CONDITIONS: female, Sprague Dawley, rat, plasma, po, 48 mg/kg, AUC0-last (hr*ng/mL) Mean ± StdDev, Group 7: 48 mg/kg PO, 60 mM Citric acid buffer + 30% Captisol; free base
RESULT_TYPE: AUC(0-t) (µg·h/mL)
Please state the figure in µg·h/mL; there is no need to write the unit.

Exercise: Give the measured AUC(0-t) of CC(C)(C)CNCCn1c(Sc2cc3c(cc2I)OCO3)nc2c(N)ncnc21 .
Solution: 5.51

###

- ASSAY_PROTOCOL: Plasma pharmacokinetics after single PO or IV administration (Example 5), LC-MS/MS
- CONDITIONS: female, Sprague Dawley, rat, plasma, po, 48 mg/kg, Tmax (hr) Mean ± StdDev, Group 7: 48 mg/kg PO, 60 mM Citric acid buffer + 30% Captisol; free base
RESULT_TYPE: Tmax (h)
Please state the figure in h; there is no need to write the unit.

Exercise: Give the measured Tmax of CC(C)(C)CNCCn1c(Sc2cc3c(cc2I)OCO3)nc2c(N)ncnc21 [Compound 2] .
Solution: 1.4

###

- ASSAY_PROTOCOL: Plasma pharmacokinetics after single PO or IV administration (Example 5), LC-MS/MS
- CONDITIONS: female, Sprague Dawley, rat, plasma, po, 24 mg/kg, AUC0-last (hr*ng/mL) Mean ± StdDev, Group 5: 24 mg/kg PO, 60 mM Citric acid buffer + 30% Captisol; free base
RESULT_TYPE: AUC(0-t) (ng·h/mL)
Please state the figure in ng·h/mL; there is no need to write the unit.

Exercise: Give the measured AUC(0-t) of CC(C)(C)CNCCn1c(Sc2cc3c(cc2I)OCO3)nc2c(N)ncnc21 .
Solution: 2010

###

- ASSAY_PROTOCOL: Plasma pharmacokinetics after single oral dose in ORA-Plus or SyrSpend SF (Example 6), LC-MS/MS
- Assay type: in vivo, Sprague Dawley rats
- CONDITIONS: female, Sprague Dawley, rat, plasma, po, 24 mg/kg, G5: 2HCl, 24 mg/kg single oral dose, ORA-plus, rat plasma; n = 4
RESULT_TYPE: half-life (h)
Please state the figure in h; there is no need to write the unit.

Exercise: Give the measured half-life of CC(C)NCCCn1c(Sc2cc3c(cc2I)OCO3)nc2c(N)ncnc21 [Compound 1 2HCl] .
Solution: 1.8

###

- ASSAY_PROTOCOL: Plasma pharmacokinetics after single oral dose in ORA-Plus or SyrSpend SF (Example 6), LC-MS/MS
- Format: in vivo, Sprague Dawley rats
- CONDITIONS: female, Sprague-Dawley, rat, plasma, po, 48 mg/kg, G10: 2HCl, 48 mg/kg single oral dose, SyrSpend, rat plasma; n = 2
RESULT_TYPE: half-life (h)
Please state the figure in h; there is no need to write the unit.

Exercise: Give the measured half-life of CC(C)(C)CNCCn1c(Sc2cc3c(cc2I)OCO3)nc2c(N)ncnc21 [Compound 2 2HCl] .
Solution: 4.28

###

- ASSAY_PROTOCOL: Solubility / compatibility testing in drinking solution vehicles and ingredients (Example 7)
- Format: physicochemical
- CONDITIONS: glycerin in 50% water, aqueous with cosolvent or surfactant or cyclodextrin; read-out: Ingredient solubility testing
RESULT_TYPE: solubility

Exercise: Give the measured solubility of CC(C)NCCCn1c(Sc2cc3c(cc2I)OCO3)nc2c(N)ncnc21 [Compound 1 2HCl] .
Solution: > 10000 µg/mL

###

- ASSAY_PROTOCOL: Plasma pharmacokinetics after single oral dose in ORA-Plus or SyrSpend SF (Example 6), LC-MS/MS
- Type: in vivo, Sprague Dawley rats
- CONDITIONS: female, Sprague-Dawley, rat, plasma, po, 48 mg/kg, G4: 2HCl, 48 mg/kg single oral dose, ORA-plus, rat plasma
RESULT_TYPE: Cmax
# output: number + unit

Exercise: Give the measured Cmax of CC(C)(C)CNCCn1c(Sc2cc3c(cc2I)OCO3)nc2c(N)ncnc21 [Compound 2 2HCl] .
Solution: 1120 ng/mL

###

- ASSAY_PROTOCOL: Plasma pharmacokinetics after single oral dose in ORA-Plus or SyrSpend SF (Example 6), LC-MS/MS
- Format: in vivo, Sprague Dawley rats
- CONDITIONS: female, Sprague Dawley, rat, plasma, po, 60 mg/kg, G14: 2HCl, 60 mg/kg single oral dose, SyrSpend; n = 3
RESULT_TYPE: AUC(0-inf) (ng·h/mL)
Please state the figure in ng·h/mL; there is no need to write the unit.

Exercise: Give the measured AUC(0-inf) of CC(C)NCCCn1c(Sc2cc3c(cc2I)OCO3)nc2c(N)ncnc21 [Compound 1 2HCl] .
Solution: 11500
